- target entity: T1, RLuc8-L5-ALFA-tag
- T1 chain: SRLEEELRRRLTE
- assay method text: BRET donor saturation assay
- test settings: chain shown with the change; HEK293T cells; 37°C; parent: 1.4 ± 0.09
Entries annotated with measured other: BRET50
Enter a number only.

Worked examples, 2 binders total:
GFP2-L5-sdAbALFA WT S57A; E58S; R59G (protein) EVQLQESGGGLVQPGGSLRLSCTASGVTISALNAMAMGWYRQAPGERRVMVAAVASGGNAMYRESVQGRFTVTRDFTNKMVSLQMDNLKPEDTAVYYCHVLEDRVDSFHDYWGQGTQVTVSS = 5.2
GFP2-L5-sdAbALFA WT S57A; E58S (protein) EVQLQESGGGLVQPGGSLRLSCTASGVTISALNAMAMGWYRQAPGERRVMVAAVASRGNAMYRESVQGRFTVTRDFTNKMVSLQMDNLKPEDTAVYYCHVLEDRVDSFHDYWGQGTQVTVSS = 6.2

q: Consider the binder GFP2-L5-sdAbALFA WT S57A; E58S; R59G; R65D (protein) EVQLQESGGGLVQPGGSLRLSCTASGVTISALNAMAMGWYRQAPGERRVMVAAVASGGNAMYDESVQGRFTVTRDFTNKMVSLQMDNLKPEDTAVYYCHVLEDRVDSFHDYWGQGTQVTVSS and give its measured other: BRET50.
a: 9.3

q: Consider the binder GFP2-L5-sdAbALFA WT S57A; E58S; R59G; R65D; D112V (protein) EVQLQESGGGLVQPGGSLRLSCTASGVTISALNAMAMGWYRQAPGERRVMVAAVASGGNAMYDESVQGRFTVTRDFTNKMVSLQMDNLKPEDTAVYYCHVLEDRVDSFHVYWGQGTQVTVSS and give its measured other: BRET50.
a: 12.4

q: Consider the binder GFP2-L5-sdAbALFA WT E58S (protein) EVQLQESGGGLVQPGGSLRLSCTASGVTISALNAMAMGWYRQAPGERRVMVAAVSSRGNAMYRESVQGRFTVTRDFTNKMVSLQMDNLKPEDTAVYYCHVLEDRVDSFHDYWGQGTQVTVSS and give its measured other: BRET50.
a: 2.2

All figures here come from paper PMC11090907.
